Test system: TE10
Assay: relative cell viability vs DMSO, compound + 0.2 uM CuET (fraction); higher = less cytotoxic
Conditions: 2 µM; co-treatment: CuET (bis(diethyldithiocarbamate)copper) 0.2 uM; 48 h
Counter-ions that a name gives are not always drawn. In all, about 2,000 compounds were measured (“relative cell viability vs DMSO, compound + 0.2 uM CuET”: median about 1, lowest 2% from about 0.25 on). For the sample, the lowest values were picked, then their nearest neighbours and some compounds at random.
Assay Readout: relative cell viability
Answer field: number only, no words.

// query Param item = Nc1ccccc1NC(=O)c1ccc(CNc2nccc(-c3cccnc3)n2)cc1 [Mocetinostat (MGCD0103)] ; retrieve measured relative cell viability.
// result 0.249

// query Consider the compound shown here: CC1(C)S[C@@H]2[C@H](NC(=O)[C@H](N)c3ccc(O)cc3)C(=O)N2[C@H]1C(=O)O [Amoxicillin] What is its recorded relative cell viability?
// result 0.42

// query Report relative cell viability for Cc1ccc(NC(=O)c2ccc(CN3CCN(C)CC3)cc2)cc1Nc1nccc(-c2cccnc2)n1 [Imatinib Mesylate (STI571)] please.
// result 1.43

// query Value lookup for relative cell viability; key = NCCCC[C@@H]1NC(=O)[C@@H](Cc2ccc(O)cc2)NC(=O)[C@H](CC(=O)O)NC(=O)CNC(=O)[C@H](CCCN=C(N)N)NC1=O [Cyclo(RGDyK)]
// result 1.19

// query Quick one: relative cell viability for Cc1ccc(NC(=O)c2ccc(CN3CCN(C)CC3)cc2)cc1Nc1nccc(-c2cccnc2)n1 [Imatinib (STI571)] ?
// result 1.05

// query For Nc1ccccc1NC(=O)c1ccc(CNC(=O)OCc2cccnc2)cc1 [Entinostat (MS-275)] , what is its reported relative cell viability?
// result 0.321

// query Given the compound O=C1NC(=NCc2cccs2)S/C1=C\c1ccc2ncccc2c1 , what is its reported relative cell viability?
// result 1.12

// query Fill in the blank: the reported relative cell viability of CNS(=O)(=O)CCc1ccc2[nH]cc(C3CCN(C)CC3)c2c1 [Naratriptan] is ____.
// result 1.2

====

For each entry below, report its relative cell viability value.
System: TE10
Assay: relative cell viability vs DMSO, compound + 0.2 uM CuET (fraction); higher = less cytotoxic
Conditions: 2 µM; co-treatment: CuET (bis(diethyldithiocarbamate)copper) 0.2 uM; 48 h
In all, about 2,000 compounds were measured (“relative cell viability vs DMSO, compound + 0.2 uM CuET”: median about 1, lowest 2% from about 0.25 on). For the sample, the lowest values were picked, then their nearest neighbours and some compounds at random.
# print the numeric value only

// query # get_value(readout='relative cell viability', item= O=S(=O)(O)CCS )
// result 1.08

// query Form field: reported relative cell viability of CC(C=CC(=O)NO)=CC(C)C(=O)c1ccc(N(C)C)cc1 (stereo not given)
// result 0.177

// query Return reported relative cell viability; argument: Cn1cc(-c2[nH]c3cc(NC(=O)[C@H](N)C4CCCCC4)cc4c3c2C=NNC4=O)cn1
// result 0.702

// query What value of relative cell viability has been recorded for this entry: O=C1Cc2c([nH]c3ccc(Br)cc23)-c2ncccc2N1
// result 1.17

// query Which relative cell viability value belongs to O=C(NOCC1CC1)c1ccc(F)c(F)c1Nc1ccc(I)cc1Cl ?
// result 0.64

// query Entry under review: O=C(Nc1cc2cc[nH]c2cn1)c1ccccc1 . Reported relative cell viability?
// result 0.399

// query What value of relative cell viability has been reported for the following compound? CC(C)C[C@H](NC(=O)CNC(=O)c1cc(Cl)ccc1Cl)B1OC(=O)CC(CC(=O)O)(C(=O)O)O1 (stereo not given in full)
// result 0.818

// query Look up relative cell viability for this compound: Cn1cc(/C=C/C(=O)c2cccc(F)c2)cc1/C=C/C(=O)NO
// result 0.872

// query Param item = CN(C)CCSSCCNC(=O)C1CCN(C(=O)CSc2ccc(Cl)cc2)CC1 ; retrieve measured relative cell viability.
// result 1.05

// query Data request, read-out relative cell viability, for O=C(C=Cc1ccccc1)NC(NC(=S)Nc1ccc(Cl)cc1)C(Cl)(Cl)Cl (stereo not given)
// result 0.908

====

Tested on: TE10
Test: relative cell viability vs DMSO, compound + 0.2 uM CuET (fraction); higher = less cytotoxic
Conditions: 2 µM; co-treatment: CuET (bis(diethyldithiocarbamate)copper) 0.2 uM; 48 h
Structures can show the parent of a compound that is named as a salt. Over roughly 2,000 compounds, “relative cell viability vs DMSO, compound + 0.2 uM CuET” has its median near 1; the lowest 2% begin near 0.25. The sample holds the lowest values, similar compounds and a random draw of the others, so the mix is not that of the screen.
// classify: if (relative cell viability < 1) true (1) else false (0)

// query Threshold test, relative cell viability < 1: COc1ccc(OC)c(C2C(C#N)=C(N)Oc3n[nH]c(-c4ccc5ccccc5c4)c32)c1 (centres undefined)
// result false (0)

// query Does the reported relative cell viability of the following molecule sit strictly below 1? COC(=O)CC(NC(=O)C(C)NC(=O)C(NC(=O)OCc1ccccc1)C(C)C)C(=O)CF (centres undefined)
// result false (0)

// query Strictly below 1 in relative cell viability? C=CS(=O)(=O)NC1CCN(C(=O)CNc2cc(I)c(Cl)cc2OC)CC1 [K-Ras(G12C) inhibitor 9]
// result true (1)

// query Quick check: does CC(C)Oc1ccc(-c2cnc3c(-c4ccnc5ccccc45)cnn3c2)cc1 have relative cell viability under 1?
// result false (0)

// query Here's an entry: COc1ccc(-c2cnc3c(-c4cccc5ncccc45)cnn3c2)cc1 . Is its relative cell viability below 1?
// result false (0)

// query Is the reported relative cell viability for O=C(Oc1cc(S(=O)(=O)c2ccccc2)ccc1[N+](=O)[O-])c1ccc(Cl)cc1 strictly below 1?
// result false (0)

// query Could you please tell me whether relative cell viability recorded for COc1c/c(=C2\C=c3ccccc3=N2)[nH]/c1=C\c1[nH]c(C)cc1C [Obatoclax Mesylate (GX15-070)] is less than 1?
// result true (1)

// query Bench note: check whether Nc1ccccc1NC(=O)c1cnccn1 shows relative cell viability below 1
// result false (0)

// query Lab note: confirm whether the reported relative cell viability for this molecule is below 1, equality not counting. molecule: C=CC(=O)Nc1cc(Nc2nccc(-c3c[nH]c4ccccc34)n2)c(OC)cc1N(C)CCN(C)C
// result true (1)

====

System: TE10
Assay: relative cell viability vs DMSO, compound + 0.2 uM CuET (fraction); higher = less cytotoxic
Settings: 2 µM; co-treatment: CuET (bis(diethyldithiocarbamate)copper) 0.2 uM; 48 h
Counter-ions that a name gives are not always drawn. In all, about 2,000 compounds were measured (“relative cell viability vs DMSO, compound + 0.2 uM CuET”: median about 1, lowest 2% from about 0.25 on). This excerpt belongs to a sample that is enriched for the lowest values.
The label is 1 for relative cell viability below 1 and 0 for relative cell viability equal to or exceeding 1.

// query # strict comparison: is reported relative cell viability < 1? input = NNC(=O)c1ccncc1
// result 0

// query I wonder whether CC(C)(C)c1cnc(CSc2cnc(NC(=O)C3CCNCC3)s2)o1 has relative cell viability below 1. Can you tell?
// result 1

// query Please determine if CC(NC(=O)Cc1cc(F)cc(F)c1)C(=O)NC1C(=O)N(C)c2ccccc2-c2ccccc21 (centres undefined) is below 1 in terms of relative cell viability.
// result 1

// query API: query returns whether the compound falls strictly under 1 in relative cell viability. Query: CS(=O)(=O)N1CCN(Cc2cc3nc(-c4cccc5[nH]ncc45)nc(N4CCOCC4)c3s2)CC1
// result 1

// query Confirm or reject: relative cell viability of CC1(C)CCCC2(C)C1CCC1(C)OC(=O)CC12 (centres undefined) [Sclareolide] lies strictly below 1
// result 0

// query Does this compound meet the criterion relative cell viability < 1? NCc1c[nH]c(=S)n1[C@@H]1CCc2c(F)cc(F)cc2C1 [(R)-Nepicastat HCl]
// result 0

====

Tested on: TE10
Assay: relative cell viability vs DMSO, compound + 0.2 uM CuET (fraction); TE10 is an esophageal squamous carcinoma line; higher = less cytotoxic
Settings: 2 µM; co-treatment: CuET (bis(diethyldithiocarbamate)copper) 0.2 uM; 48 h
Whole data set: some 2,000 compounds, median “relative cell viability vs DMSO, compound + 0.2 uM CuET” near 1, cut for the lowest 2% near 0.25. The sample as a whole holds a higher share of the lowest values than the screen did.
Please respond with reported relative cell viability for every item in the list.
# respond with the number and nothing more

// query Param item = O=C(O)CCNC(=O)c1ccccc1 [Betamipron] ; retrieve measured relative cell viability.
// result 1.01

// query Could you share which relative cell viability value was measured for CC(C)(C)C(=O)Nc1ccc2c(c1)C(=O)C(=O)c1ccccc1-2 ?
// result 0.026

// query // returns reported relative cell viability for input CC(=O)Nc1ccccc1 [Acetanilide]
// result 1.02

// query Param item = COC1C(O)CC(=O)OC(C)CC=CC=CC(OC2CCC(N(C)C)C(C)O2)C(C)CC(CC=O)C1OC1OC(C)C(OC2CC(C)(O)C(O)C(C)O2)C(N(C)C)C1O (centres undefined) [Spiramycin] ; retrieve measured relative cell viability.
// result 1.11

// query Requested field: relative cell viability. Item: CC(C)(C)c1[nH]cnc1/C=c1\[nH]c(=O)/c(=C/c2ccccc2)[nH]c1=O [Plinabulin (NPI-2358)]
// result 0.753

// query # lookup: relative cell viability of Cn1c(Nc2ccc(C(F)(F)F)cc2)nc2cc(Oc3ccnc(-c4ncc(C(F)(F)F)[nH]4)c3)ccc21
// result 0.847

// query # input compound: O=C1C(Cl)=C(N2CCOCC2)C(=O)N1c1ccc(Cl)c(Cl)c1 ; wanted: its relative cell viability
// result 1.17

// query GET /values?readout=relative cell viability&item= C[C@]12CCC(=O)C=C1[C@@H]1C[C@@H]1[C@H]1[C@@H]3[C@@H]4C[C@@H]4[C@@]4(CCC(=O)O4)[C@@]3(C)CC[C@@H]12 [Drospirenone]
// result 0.77

// query Name the reported relative cell viability value associated with the compound O=C1c2ccccc2C(=O)c2c1ccc(O)c2O [Alizarin]
// result 1.1
